Assignment: determine reported Mean relative activity for the given molecules.
# System: K562 CRISPRi cells
# Procedure Text: Constant region variant library pooled growth screen, K562
# Type: cell-based, human
# Condition Summary: sgRNA constant region variants; activity relative to the original, un-modified constant region cr995

Could you tell me which Mean relative activity is on file for cr362 (nucleic acid, listed as DNA, chemistry not fully specified) guide: GTTTAAGAGCTAAGCTGGAAACAGCATAGCAAGTTTAAATAAGGCTAGTCCGTTATCAACTTGAAAAAGTGGCACAGAGTCGGTGCT ?
0.8214

Could you tell me which Mean relative activity is on file for cr402 (nucleic acid, listed as DNA, chemistry not fully specified) guide: GTTTAAGAGCTAAGCTGGAAACTGCATAGCAAGTTTAAATAAGGCTAGTCCGTTATCAACTTGAAAAAGTGGCACCGAGTCGGTGCT ?
0.8977

Could you tell me which Mean relative activity is on file for cr674 (nucleic acid, listed as DNA, chemistry not fully specified) guide: GTTTAAGAGCTAAGCTGGAAACAGCATAGCAAGTTTAAATAACGCTAGTCGGTTATCATCTTGAAAAAGAGGCACCGAGTCGGTGCT ?
0.00279

Could you tell me which Mean relative activity is on file for cr909 (nucleic acid, listed as DNA, chemistry not fully specified) guide: GTTTAAGAGCTAAGCTGGAAACAGCATATCAAGTTTAAATAAGGCTAGTCCGTGATCAACTTGTAAAAGTGGCACCGAGTCGGTGCT ?
0.8864

Could you tell me which Mean relative activity is on file for cr583 (nucleic acid, listed as DNA, chemistry not fully specified) guide: GTTTAAGAGCTAAGCTGGAAACAGCATAGCAAGTTTAAATCAGGCTAGTCCATTATCTACTTGAAAAAGTGGCACCGAGTCGGTGCT ?
−0.01013

Could you tell me which Mean relative activity is on file for cr010 (nucleic acid, listed as DNA, chemistry not fully specified) guide: GTTAAAGAGCTAAGCTGGAAACAGCATAGCAAGTTTAAATAAGGCTAGTCCGTTATCAACTTGAAAAAGTGGCACCGAGTCGGTGCT ?
0.02976

Could you tell me which Mean relative activity is on file for cr631 (nucleic acid, listed as DNA, chemistry not fully specified) guide: GTTTAAGAGCTAAGCTGGAAACAGCATAGCAAGTTTAAATAAGGATATTCCGTTATCAACATGAAAATGTGGCAACGAGTCGTTGCT ?
0.6014

Could you tell me which Mean relative activity is on file for cr225 (nucleic acid, listed as DNA, chemistry not fully specified) guide: GTTTAAGAGCTAAGCTGGAAACAGCATAGCAAGTTTAAATAATGCTATTCCGTTATCAACTTGAAAAAGTGGCACCGAGTCGGTGCT ?
0.002658

Could you tell me which Mean relative activity is on file for cr443 (nucleic acid, listed as DNA, chemistry not fully specified) guide: GTTTAAGAGCTAAGCGGGAAACAGCATAGCAAGTTTAAATAAGGCTAGTCCGTTATCAACTTGAAAAAGTGGCACCGAGTCGGTGCT ?
0.7774

Could you tell me which Mean relative activity is on file for cr852 (nucleic acid, listed as DNA, chemistry not fully specified) guide: GTTTAAGAGCTAAGCTGGAAACAGCATAGCAAGTTTAAATAAGGCTAGTCCGTTATCAAGAAAAAATACTGGCACCGAGTCGGTGCT ?
0.7542

Could you tell me which Mean relative activity is on file for cr233 (nucleic acid, listed as DNA, chemistry not fully specified) guide: GTTTAAGAGCTAAGCTGGAAACAGCATAGCAACTTTAAATAAGGCTAGTCCGTTATCAACTTGAAAAAGTGGCACCCAGTGGGTGCT ?
−0.003511

Could you tell me which Mean relative activity is on file for cr039 (nucleic acid, listed as DNA, chemistry not fully specified) guide: GATTATGAGCTAAGCTGGAAACAGCATAGCAAGTTTAAATAAGGCTAGTCCGTTATCAACTTGAAAAAGTGGCACCGAGTCGGTGCT ?
−0.0006181

Could you tell me which Mean relative activity is on file for cr608 (nucleic acid, listed as DNA, chemistry not fully specified) guide: GTTTAAGAGCTAAGCTGGAAACAGCATAGCAACTTTAAATAAGGGTACTCCGTTATCAACTTGAAAAAGTGGCACCGAGTCGGTGCT ?
0.002568

Could you tell me which Mean relative activity is on file for cr767 (nucleic acid, listed as DNA, chemistry not fully specified) guide: GTTTAAGAGCTAAGCTGGAAACAGCATAGCAAGATTAAATAAGGCTAGTCCGTTATCAACTTGAAAAAGTGGCACCGTGTCGGTGCT ?
0.0381
